Ref: patent US20260176270A1

- System: phosphorylation of CDK1 at Thr14 in HCC1806 cells
- PROCEDURE DETAILS: Cell lysate AlphaLISA assay measuring inhibition of phosphorylation of CDK1 Thr14
- Type: cell-based
- PARTICULARS: 4 hours, read-out: Cellular IC50
pIC50: −log10 of the molar value.
Reported values of pIC50 for individual entries

Cc1cnc2c(-c3c(C)ccc(O)c3C)c(N)c(C(N)=O)cc2n1 (atropisomer, axis not shown) [Compound 223]	≤ 5.30
Cc1n[nH]c2cccc(-c3c(N)c(C(N)=O)cc4nccnc34)c12 (single isomer, unassigned) [Compound 119]	≤ 5.30

Q: Reported pIC50 for Cc1c(O)cccc1-c1c(N)c(C(N)=O)cc2nccnc12 (single isomer, unassigned) [Compound 87] : what is it?
Result: 6.30 to 7.30

Q: Fill blank: measured pIC50 of the compound Cc1ccc(O)c(C)c1-c1c(N)c(C(N)=O)nc2cccnc12 (single isomer, unassigned) [Compound 10] is ____.
Result: 5.30 to 6.00
